compounds and their reported growth
test system: T-47D breast; test: NCI-60 one-dose screen, 48 h (100 = growth as untreated, 0 = no growth, -100 = all killed); settings: 10 µM unless noted
This is part of a sample that, as a whole, favours compounds with a hit. Of some 83,000 tested, about 20% had one in any assay. The source made the active and inactive calls. The calls were made as follows: active = growth percent below 10; inactive = the rest.
EXPERIMENTAL_READOUT: growth

COMPOUND: Cc1c(C(N)=O)sc2c1C(=O)N(Cc1ccccc1)C1=NN=C(c3ccc(Cl)cc3)CN12
VAL: 63.4% (inactive)

COMPOUND: O=C1c2nsnc2C(=O)c2c(F)c(F)c(F)c(F)c21
VAL: -38.9% (active)

COMPOUND: COc1ccc(-c2nnc(COc3ccc(NC(=O)Nc4cc(C(F)(F)F)cc(C(F)(F)F)c4)cc3F)o2)cc1
VAL: 20.4% (inactive)

COMPOUND: COc1cccc(C2C(C#N)=C(N)Oc3cc(OC)ccc32)c1 (configuration not stated)
VAL: 55.8% (inactive)

COMPOUND: O=C(Nc1ccncc1)C(=O)c1cn(S(=O)(=O)c2cccc(F)c2)c2ccccc12
VAL: 31.6% (inactive)

COMPOUND: COc1ccc(C2=NNC(c3cc(Cc4ccc(O)c(C5CC(c6ccc(OC)cc6)=NN5)c4)ccc3O)C2)cc1 (configuration not stated)
VAL: 50.3% (inactive)

COMPOUND: O=C(c1ccccc1)c1ccccc1Cl
VAL: 98.9% (inactive)

COMPOUND: Cc1cc2cn3c4cccnc4[nH]c(=O)c3c2cc1C
VAL: -21.3% (active)

COMPOUND: Cc1c(C(N)=O)sc2ncn(Cc3ccccc3)c(=O)c12
VAL: 98.1% (inactive)

COMPOUND: Cn1c(N)c(N=O)c(=O)[nH]c1=O
VAL: 98% (inactive)

COMPOUND: CCC(CC)NCCCCCNc1cc(OC)cc2cccnc12
VAL: 73.8% (inactive)

COMPOUND: O=C(O)c1ccc(NC(=O)c2cccc(Nc3ccnc(C(F)(F)F)c3)c2)cc1
VAL: 94.3% (inactive)

COMPOUND: COc1ccc2nc(NC(=O)c3cc(-c4ccc(F)cc4)n4nc(-c5ccccc5)cc4n3)sc2c1
VAL: 89.5% (inactive)

COMPOUND: CCOc1ccccc1C(=O)OCC(=O)Nc1cccc(S(=O)(=O)N(C)C)c1
VAL: 66.5% (inactive)

COMPOUND: Clc1ccccc1[C@@H]1C[C@@H]2Cc3cc(Br)c4ccccc4c3N1O2
VAL: 65.3% (inactive)

COMPOUND: CCOC(=O)c1cc(-c2cccnc2)nc2c(Cl)cc(Cl)cc12
VAL: 85.3% (inactive)

COMPOUND: Cn1cc(-c2csc(-c3c[nH]c4ncccc34)n2)c2cc(F)cnc21
VAL: 43.7% (inactive)

COMPOUND: CCCCCCCC1(C)NC(=O)NC1=O (configuration not stated)
VAL: 123% (inactive)

COMPOUND: CCSc1nnc2n(Cc3ccccc3)c(=O)c3c(C)c(C(N)=O)sc3n12
VAL: 99.8% (inactive)

COMPOUND: c1ccc(-c2nnc(Nc3nnc(-c4ccccc4)s3)s2)cc1
VAL: 93.8% (inactive)

COMPOUND: COc1cc(/C=C/C(=O)c2c(-c3ccc(Cl)cc3)nc3sc(C)nn23)cc(OC)c1OC
VAL: 19.3% (inactive)

COMPOUND: CC(C)c1ccc(C(=O)Nc2sc3c(CN(C)C)c(O)ccc3c2C(N)=O)cc1
VAL: 54.2% (inactive)

Source of measurements: PubChem BioAssay (NCI)
